Hi there, I'd appreciate the recorded S/N at plasma conc. 12.8 ng/mL for every entry that follows.
Biological target: T1, exemplary TAT frataxin fusion molecule (HIV-1, UniProt Q16595 1-210)
T1 construct: in the bridging assays biotinylated and sulfotagged forms were used; also called TAT-FXN fusion molecule; TAT FXN fusion molecule
T1 sequence: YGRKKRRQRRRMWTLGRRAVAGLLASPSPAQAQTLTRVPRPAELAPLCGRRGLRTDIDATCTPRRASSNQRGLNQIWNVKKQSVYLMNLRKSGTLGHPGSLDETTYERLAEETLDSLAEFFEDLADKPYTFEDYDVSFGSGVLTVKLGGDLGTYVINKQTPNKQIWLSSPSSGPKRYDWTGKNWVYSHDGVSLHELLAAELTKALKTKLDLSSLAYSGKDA
Test: PK sandwich ELISA in human plasma, antibody as capture, HRP anti-frataxin mAb detection

Output S/N at plasma conc. 12.8 ng/mL of antibody 10-12 (antibody, V domains shown, Rabbit monoclonal) VH: QSLEESGGDLVKPGASLTLTCTASGFSFSSGYWICWVRQAPGKGLEWIACIYTGDGDTSYASWAKGRFTISKTSSTTVTLQMTSLTVADTAIYFCARDTSGTFYYNLWGPGTLVAVSS VL: ELVLTQTASSVSAAVGGTVTISCQSSESVYKTNYLSWFQKKPGQPPKLLIYDASTLASGVPSRFSGSGSGTQFTLTISDLECDDAATYYCAGGYSDDINAFGGGTEVVVK 17.3

Output S/N at plasma conc. 12.8 ng/mL of antibody 10-4 (antibody, V domains shown, Rabbit monoclonal) VH: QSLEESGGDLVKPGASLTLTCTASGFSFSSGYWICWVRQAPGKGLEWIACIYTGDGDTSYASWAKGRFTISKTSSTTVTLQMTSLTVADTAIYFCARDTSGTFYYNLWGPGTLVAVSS VL: DVVMTQTPSPVSAPVGGTVTINCQASQNIYSNLAWYQQKPGQPPKLLIYGASTLASGVSSRFKGSRSGTEFTLTISDLECADAATYYCQSYVYSSSTADTFGGGTKVVVE 13.5

Output S/N at plasma conc. 12.8 ng/mL of antibody 10-9 (antibody, V domains shown, Rabbit monoclonal) VH: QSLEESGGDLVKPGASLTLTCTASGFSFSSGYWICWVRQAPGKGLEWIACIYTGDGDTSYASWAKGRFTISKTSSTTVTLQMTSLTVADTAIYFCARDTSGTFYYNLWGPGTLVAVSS VL: AAVLTQTPSSVSAAVGGTVTISCQSSESVYKTNYLSWFQKKPGQPPKLLIYDASTLASGVPSRFSGSGSGTQFTLTISDLECDDAATYYCAGGYSDDINAFGGGTEVEIK 16.6

Output S/N at plasma conc. 12.8 ng/mL of antibody 12-1 (antibody, V domains shown, Rabbit monoclonal) VH: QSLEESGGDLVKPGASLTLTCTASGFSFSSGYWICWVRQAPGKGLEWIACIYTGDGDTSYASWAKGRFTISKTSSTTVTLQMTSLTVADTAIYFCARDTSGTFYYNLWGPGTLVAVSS VL: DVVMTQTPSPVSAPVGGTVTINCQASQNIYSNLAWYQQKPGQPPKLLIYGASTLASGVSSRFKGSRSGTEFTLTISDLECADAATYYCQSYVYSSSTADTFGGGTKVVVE 16.9

Output S/N at plasma conc. 12.8 ng/mL of antibody 10-5 (antibody, V domains shown, Rabbit monoclonal) VH: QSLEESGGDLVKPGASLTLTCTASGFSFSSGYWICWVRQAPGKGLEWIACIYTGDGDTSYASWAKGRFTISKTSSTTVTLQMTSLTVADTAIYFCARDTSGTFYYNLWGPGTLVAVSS VL: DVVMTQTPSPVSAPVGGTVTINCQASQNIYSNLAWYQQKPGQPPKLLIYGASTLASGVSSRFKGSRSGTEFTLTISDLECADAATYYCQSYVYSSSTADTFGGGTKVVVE 17.4

Output S/N at plasma conc. 12.8 ng/mL of antibody 10-1 (antibody, V domains shown, Rabbit monoclonal) VH: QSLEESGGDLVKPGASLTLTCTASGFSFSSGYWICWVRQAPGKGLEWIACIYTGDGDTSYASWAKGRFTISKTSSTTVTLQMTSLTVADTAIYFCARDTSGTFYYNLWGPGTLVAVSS VL: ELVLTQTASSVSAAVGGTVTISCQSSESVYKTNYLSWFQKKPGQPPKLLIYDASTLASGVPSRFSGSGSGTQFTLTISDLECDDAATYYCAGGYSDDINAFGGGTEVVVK 17.1

Output S/N at plasma conc. 12.8 ng/mL of antibody 12-8 (antibody, V domains shown, Rabbit monoclonal) VH: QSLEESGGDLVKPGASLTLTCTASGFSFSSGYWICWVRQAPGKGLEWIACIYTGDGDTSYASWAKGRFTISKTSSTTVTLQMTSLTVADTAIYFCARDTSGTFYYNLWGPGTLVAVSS VL: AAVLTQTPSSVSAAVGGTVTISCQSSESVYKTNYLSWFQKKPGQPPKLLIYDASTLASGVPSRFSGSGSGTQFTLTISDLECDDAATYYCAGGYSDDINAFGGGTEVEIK 16
